Each entry below lists one item and its recorded MIC value.
test system: Staphylococcus aureus; assay: Antibacterial activity against Staphylococcus aureus ATCC 6538p after 24 hrs; type: functional
MEASUREMENT TYPE: MIC (µg/mL)

compound=CC1(C)S[C@@H]2[C@H](NC(=O)[C@H](N)c3ccccc3)C(=O)N2[C@H]1C(=O)O reading_qualifier== assay_value=0.39
compound=O=C(c1ccc(O)c(Br)c1)c1nccc2c1[nH]c1ccccc12 reading_qualifier== assay_value=12.5
compound=O=C(c1ccc(O)cc1)c1nccc2c1[nH]c1ccccc12 reading_qualifier=> assay_value=100
compound="Oc1c(Br)cc(C(O)c2nccc3c2[nH]c2ccccc23)cc1Br (centres undefined)" reading_qualifier== assay_value=25
